The reported numbers originate from patent US20230002496A1.

Biological target: T1, human GM-CSFRα, full length on cells (human, UniProt P15509 23-400)
T1 sequence: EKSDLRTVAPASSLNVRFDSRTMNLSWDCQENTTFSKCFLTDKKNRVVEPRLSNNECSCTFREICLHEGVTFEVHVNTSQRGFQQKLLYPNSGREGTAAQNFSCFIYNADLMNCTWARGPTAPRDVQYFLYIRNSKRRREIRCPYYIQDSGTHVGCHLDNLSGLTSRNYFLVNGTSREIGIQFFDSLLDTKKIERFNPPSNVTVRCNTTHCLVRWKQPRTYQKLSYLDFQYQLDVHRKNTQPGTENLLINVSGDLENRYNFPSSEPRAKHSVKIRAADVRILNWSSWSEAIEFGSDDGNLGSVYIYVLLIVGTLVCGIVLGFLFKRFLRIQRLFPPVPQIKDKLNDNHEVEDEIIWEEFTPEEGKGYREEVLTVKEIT
Assay: cell-based or functional assay
Sorting guide: entries reporting IC50, TF-1 cell proliferation beneath 0.04 µg/mL go in the condition met pile, the rest go in the condition not met pile.

Just wondering, is IC50, TF-1 cell proliferation of E35-IgG4 (antibody, V domains shown, human IgG4, human kappa; also called E35-IG4) VH: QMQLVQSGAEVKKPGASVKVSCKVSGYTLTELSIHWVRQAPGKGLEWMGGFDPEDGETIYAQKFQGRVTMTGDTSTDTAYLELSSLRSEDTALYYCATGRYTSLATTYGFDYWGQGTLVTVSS VL: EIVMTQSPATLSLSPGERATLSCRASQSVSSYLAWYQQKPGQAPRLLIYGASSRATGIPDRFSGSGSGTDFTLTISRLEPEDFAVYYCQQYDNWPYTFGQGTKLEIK below 0.04 µg/mL?
condition not met

Just wondering, is IC50, TF-1 cell proliferation of E35-VL93D-IG4 (antibody, IgG4, V domains shown) VH: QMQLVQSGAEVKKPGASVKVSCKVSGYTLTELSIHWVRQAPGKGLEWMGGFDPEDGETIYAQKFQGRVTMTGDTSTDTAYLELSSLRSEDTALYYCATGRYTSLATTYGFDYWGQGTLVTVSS VL: EIVMTQSPATLSLSPGERATLSCRASQSVSSYLAWYQQKPGQAPRLLIYGASSRATGIPDRFSGSGSGTDFTLTISRLEPEDFAVYYCQQYDDWPYTFGQGTKLEIK below 0.04 µg/mL?
condition met

Just wondering, is IC50, TF-1 cell proliferation of E35-VH28H-VL30C-IG4 (antibody, IgG4, V domains shown) VH: QMQLVQSGAEVKKPGASVKVSCKVSGYHLTELSIHWVRQAPGKGLEWMGGFDPEDGETIYAQKFQGRVTMTGDTSTDTAYLELSSLRSEDTALYYCATGRYTSLATTYGFDYWGQGTLVTVSS VL: EIVMTQSPATLSLSPGERATLSCRASQSVCSYLAWYQQKPGQAPRLLIYGASSRATGIPDRFSGSGSGTDFTLTISRLEPEDFAVYYCQQYDNWPYTFGQGTKLEIK below 0.04 µg/mL?
condition not met

Others:
Just wondering, is IC50, TF-1 cell proliferation of E35-VH28H-VL30L-IG4 (antibody, IgG4, V domains shown) VH: QMQLVQSGAEVKKPGASVKVSCKVSGYHLTELSIHWVRQAPGKGLEWMGGFDPEDGETIYAQKFQGRVTMTGDTSTDTAYLELSSLRSEDTALYYCATGRYTSLATTYGFDYWGQGTLVTVSS VL: EIVMTQSPATLSLSPGERATLSCRASQSVLSYLAWYQQKPGQAPRLLIYGASSRATGIPDRFSGSGSGTDFTLTISRLEPEDFAVYYCQQYDNWPYTFGQGTKLEIK below 0.04 µg/mL?
condition met

Just wondering, is IC50, TF-1 cell proliferation of E35-VH28H-VL93L-IG4 (antibody, IgG4, V domains shown) VH: QMQLVQSGAEVKKPGASVKVSCKVSGYHLTELSIHWVRQAPGKGLEWMGGFDPEDGETIYAQKFQGRVTMTGDTSTDTAYLELSSLRSEDTALYYCATGRYTSLATTYGFDYWGQGTLVTVSS VL: EIVMTQSPATLSLSPGERATLSCRASQSVSSYLAWYQQKPGQAPRLLIYGASSRATGIPDRFSGSGSGTDFTLTISRLEPEDFAVYYCQQYDLWPYTFGQGTKLEIK below 0.04 µg/mL?
condition met
